Target or system Plasmepsin II (Plasmodium falciparum, UniProt P46925); metric IC50; compiled from varied reports.
Give bare numbers, in nM.

| molecule | unit label | reading |
| --- | --- | --- |
| CCCCNC(=O)C[C@H](O)[C@H](CC(C)C)NC(=O)[C@@H](NC(=O)c1ccc(Oc2ccc(C(=O)N[C@@H](CC(C)C)C(=O)N[C@@H](CCCCN)C(=O)NCCCC(C)Nc3cc(OC)cc4cccnc34)cc2)cc1)[C@@H](C)CC (stereo partly drawn) | nM | 0.59 |
| CCCN(CCC)C(=O)c1cc(C(=O)N[C@@H](Cc2ccccc2)[C@H](O)CNC(C)(C)c2cccc(OC)c2)cc(-c2ccccc2)c1 | nM | 72 |

In: Please provide the recorded IC50 for `CCCCCc1ccc(C(=O)N(CCN2CCOCC2)Cc2ccc(-c3ccc4c(c3)OCO4)cc2)cc1` , tested on Plasmepsin II (Plasmodium falciparum, UniProt P46925).
Out: 2900

###

Target or system Plasmepsin II (Plasmodium falciparum, UniProt P46925); metric IC50; compiled from varied reports.
1 if IC50 is below 0.2 µM. 0 if not; exact matches included in 0.

// below: answered molecules
| molecule | cat |
| --- | --- |
| Cc1ccc2c(NNC(=O)c3ccccc3O)c3ccccc3nc2c1C | 1 |
| CCCCCc1ccc(C(=O)N(CCN(CCCC)CCCC)Cc2ccc(-c3ccc4c(c3)OCO4)cn2)cc1 | 0 |
| Nc1nc2cc(-c3ccccc3)ccc2c(=O)n1C[C@H]1CC[C@@H](c2ccccc2)O1 | 0 |
| CC(C)C[C@H](NC(=O)CC1CCCCC1)[C@@H](O)[C@H](O)[C@H](CC(C)C)NC(=O)CC1CCCCC1 | 0 |
| CCCCOc1cccc(-c2cc(C(=O)N/N=C(\C)c3cccc(NC(=O)C(C)(C)C)c3)c3ccccc3n2)c1 | 0 |

In: hey, is IC50 for Nc1nc2cc(-c3ccc(CCCCc4ccccc4)cc3)ccc2c(=O)n1C[C@@H]1CC[C@H](c2ccccc2)O1 (racemic) lower than 0.2 µM or not?
Out: 0

In: hey, is IC50 for `CCCCCc1ccc(C(=O)N(CCN2CCC(CCCc3ccccc3)CC2)Cc2ccc(-c3ccc4c(c3)OCO4)cc2)cc1` lower than 0.2 µM or not?
Out: 1

In: hey, is IC50 for `CCCCCc1ccc(C(=O)N(CCN(CCCC)CCCC)Cc2ccc(-n3cccc3)cc2)cc1` lower than 0.2 µM or not?
Out: 0

In: hey, is IC50 for `CCCN(CCC)C(=O)c1cc(C(=O)N[C@@H](Cc2ccccc2)[C@H](O)CNC(C)(C)c2cccc(OC)c2)cc(N2CCCCC2)c1` lower than 0.2 µM or not?
Out: 1

In: hey, is IC50 for `CCCCCc1ccc(C(=O)N(CCN(CCCC)CCCC)Cc2ccc(-n3ccc4ccccc43)cc2)cc1` lower than 0.2 µM or not?
Out: 0

###

Target or system UniProt:P46925; metric IC50; compiled from varied reports.
Numbers only, in nM.

| chemical string | unit label | IC50 |
| --- | --- | --- |
| CCCN(CCC)C(=O)c1cc(C(=O)N[C@@H](Cc2ccccc2)[C@H](O)CNC2(c3cccc(OC)c3)CC2)cc(N2CCCCC2)c1 | nM | 150 |
| CC(C)CCNC(=O)[C@H](c1c[nH]c2ccccc12)N(C(=O)c1snc(C(N)=O)c1N)c1ccc2c(c1)OCO2 | nM | 21300 |
| CCCCCc1ccc(C(=O)N(CCN(CCCC)CCCC)Cc2ccc(-c3ccc(CC(=O)N(C)Cc4ccccc4)cc3)cc2)cc1 | nM | 91 |

Report IC50 for each item below.
1. CCCCCc1ccc(C(=O)N(CCN(CCCC)CCCC)Cc2ccc(N3CCN(C)CC3)cc2)cc1
2. CCN(CC)C(=O)c1sc(NC(=O)c2cc(-c3cccc(C)c3)nc3ccccc23)c(C(=O)OC)c1C

Out:
1: 2550; 2: 2500
